Attribution: the supplement of paper PMC11417369

test system: PfAP2-G AP2 domain (GST-tagged); assay: gcPBM binding intensity (ln(normalized median fluorescence intensity)); higher = stronger DNA binding
Over roughly 25,000 sequences, “ln(normalized median fluorescence intensity)” has its median near 10; the highest 2% begin near 12. Many of the other results were omitted from the sample, so the highest values are more common in it than they were.
Hi there, I'd appreciate the recorded gcPBM binding intensity (ln) for every entry that follows.
No unit in the answer, only the number.

Form field: reported gcPBM binding intensity (ln) of TATTATAATATTTATACACACATAATTTTGATAAAT [CACACA_site583]
9.95

Any idea what gcPBM binding intensity (ln) was measured for AAGATAAAATTATGTAGTACAAAAAAAAATAAAAAA [XGTACX_site139] ?
11.7

Query: gcPBM binding intensity (ln); subject: AAAGATAAAATATTATGTACATATATATATATATAT [XGTACX_site5079]
11.1

Can you look up the measured gcPBM binding intensity (ln) of TTACATTATATACATACACACCCACCCACAAAAAAA [CACACA_site8187] for me?
10.7

Field request: gcPBM binding intensity (ln) | item: AATAATTATAAAAAATGTACAAAAAAAAAAAAAAAA [XGTACX_site3681]
10.5

====

test system: PfAP2-G AP2 domain (GST-tagged); assay: gcPBM binding intensity (ln(normalized median fluorescence intensity)); higher = stronger DNA binding
The full ranking holds about 25,000 sequences; the median of “ln(normalized median fluorescence intensity)” is about 10, and the highest 2% start at about 12. Only a selection was taken, and the highest values are over-represented in it overall.
attribute.measured: gcPBM binding intensity (ln)
Form field (numeric): enter value without unit.

Any idea what its gcPBM binding intensity (ln) is? The sequence is ATAACAAAATAAAACACACACACAAATGTACAGATA [CACACA_site5358]
11.1

# get_value(readout='gcPBM binding intensity (ln)', item= TTAACTTATTTGTAAAGTACATTAATAAAAAGAAAA [XGTACX_site1588] )
11.1

May I ask what gcPBM binding intensity (ln) has been recorded for ATATGTATATTTTTGATGTGCTTTTATTTGGTTATT [CACACA_negctrl_site626] ?
10

Return reported gcPBM binding intensity (ln); argument: CAACAAAAATTATTTACACACAAAAGGCAAGGAAAT [CACACA_site1971]
10.5

Requested read-out: gcPBM binding intensity (ln). Entry: ATAAATATTTACAAAAGTACACATAACTTTAGATAT [XGTACX_site1685]
11.4

Quick check: gcPBM binding intensity (ln) of TATCCTAACTTTAGATGTACACAAATAAAAAAAAAA [XGTACX_site4491] ?
11.7

Value lookup for gcPBM binding intensity (ln); key = CCCTTTTCTAAATATTGTACGTATAAATTATATTAC [XGTACX_site7676]
11.7

# lookup: gcPBM binding intensity (ln) of AAAAGTATAATAAATTGTACTAACAAATATTTATGT [XGTACX_site7721]
10.9

// lookup gcPBM binding intensity (ln) for ATATAATATTTATATGTACACACCTTAATCCTTAAA [CACACA_site3555]
11.3

====

tested on: PfAP2-G AP2 domain (GST-tagged); assay: gcPBM binding intensity (ln(normalized median fluorescence intensity)); higher = stronger DNA binding
In all, about 25,000 sequences were measured (“ln(normalized median fluorescence intensity)”: median about 10, highest 2% from about 12 on). The list comes from a sample in which the highest values are over-represented; it also holds close analogues and randomly drawn sequences.
So I've got a bunch of sequences here, and I need their gcPBM binding intensity (ln) values.

Consider the sequence shown here: AAATTAAAATATAATACACACATAAAAAAAAAAAAA [CACACA_site4183] What is its recorded gcPBM binding intensity (ln)?
9.82

Which gcPBM binding intensity (ln) is listed for AATTATATATTATCATGTACAAATATAGTAATACAA [XGTACX_site6845] ?
10.7

Name the recorded gcPBM binding intensity (ln) for TAGTAACTTGTATTCACACAAATTATATTATATTAC [CACACA_site5041] .
9.96

Requested field: gcPBM binding intensity (ln). Item: TTTCATTTAGCTTTTACACACTATATATTATTGATT [CACACA_site16]
9.82

Quick check: gcPBM binding intensity (ln) of AAACCGAATTTACATGAATGTAAATTATGTTGTTTT [CACACA_negctrl_site1834] ?
9.53

Entry under review: TAACATTAAAATAAAAGTACTTAATAATATTAAGTA [XGTACX_site5920] . Reported gcPBM binding intensity (ln)?
11.1

GET /values?readout=gcPBM binding intensity (ln)&item= TAAATTTAAAATGACACACACTAAAATTATTTAAGT [CACACA_site4816]
10.1

Requested read-out: gcPBM binding intensity (ln). Entry: ATATTGTAAGTAAACACACACACATATATATGTATA [CACACA_site8124]
9.96

Can you look up the measured gcPBM binding intensity (ln) of CACTTTATACGTAATTGTACTTTTTCTTTTTTTTAT [XGTACX_site3175] for me?
11.5

What does the record list as gcPBM binding intensity (ln) for TTTTTTTTTTTTGGTAGTACATAAATATTTTATGGA [XGTACX_site6851] ?
12

Please give the measured gcPBM binding intensity (ln) for this sequence: AAAAAAAATTAAATAAATAAATATACACATATATAT [GTGCAC_negctrl_site394]
9.47

Quick check: gcPBM binding intensity (ln) of AATTAAAATAGTAATACACACTTCATAGGAAATGAT [CACACA_site5045] ?
9.83

Fill blank: measured gcPBM binding intensity (ln) of the sequence ATATAAAACAACGGGTGTACAAAAAAATAAATAATA [XGTACX_site4094] is ____.
11.3

Requested read-out: gcPBM binding intensity (ln). Entry: AGTTTGATTTTTTCTTATAATATATTATTATATATT [CACACA_negctrl_site376]
9.97

Name the recorded gcPBM binding intensity (ln) for TTTATTAATTTATAGTGTACATATTAATAATATATT [XGTACX_site7949] .
11.3

Record request: gcPBM binding intensity (ln) value, item ACATATATATATATGTGTACATATTTATACAACAAT [XGTACX_site6660]
11.6

Which gcPBM binding intensity (ln) is reported for this sequence? ATATTATACCCGTGTACACATTATAACCATATATAA [CACACA_site5933]
11.7

Recorded gcPBM binding intensity (ln) of TATATTTATACAATATGTACATATTATATATATATA [XGTACX_site3098] , please.
11

Form field: reported gcPBM binding intensity (ln) of TATAAAAAAAAATGTGGTACATATTTCCATTTTCCA [XGTACX_site4571]
11.3

Which gcPBM binding intensity (ln) is listed for AAATTATATATAAAATGTACATATGTAGGTAATTTT [XGTACX_site5047] ?
10.9

Request the reported gcPBM binding intensity (ln) associated with TAGATATATAATTTGCGTACACAAATAATATATTTT [XGTACX_site6397]
11.4

// gcPBM binding intensity (ln) lookup, key: TTAAAATTAAAAATGCGTACACATATACATAAAAAA [XGTACX_site1915]
11.7

Using the record for GTTATTAAAAACGGGTGTACACATATATAAATATAT [XGTACX_site1234] , report its gcPBM binding intensity (ln).
11.6

// returns reported gcPBM binding intensity (ln) for input AGGCACGTGTTATATACACACATAATCAAATAAACT [CACACA_site7852]
10

Requested read-out: gcPBM binding intensity (ln). Entry: TATATTTTTATATTTTGTACATATAGTAAATATAAA [XGTACX_site4768]
10.8

// returns reported gcPBM binding intensity (ln) for input GATAATAATAAGTGTACACATATATTTAGAAGAGTA [CACACA_site4245]
11.5

Field request: gcPBM binding intensity (ln) | item: GTTCCATATATTACATGTACATATTTTTACATTTAA [XGTACX_site660]
11.2

// query gcPBM binding intensity (ln) value for entry TAAGCCAAGGGATAAATAAAATAACAAAATGAAATC [GTGCAC_negctrl_site601]
9.66

Name the reported gcPBM binding intensity (ln) value associated with the sequence AAAAAAAAAAGACACACACACACACGGAGATATATA [CACACA_site6216]
10.1

Quick one: gcPBM binding intensity (ln) of AATAGTAATTTGAATACACACAATAATATATTTATA [CACACA_site7055] ?
9.96

# query: gcPBM binding intensity (ln) of entry AATAATACACAATTTTGTACGTATTTAAAATATATT [XGTACX_site45]
11.3

State the recorded gcPBM binding intensity (ln) for this entry: GCTTCTTAATATCATACACACATAGATATATTTATA [CACACA_site5676]
9.93

Look up gcPBM binding intensity (ln) for this sequence: AAAAACGAAAAAAATACACACCTGAAAAGATATGTA [CACACA_site4644]
9.72

State the recorded gcPBM binding intensity (ln) for this entry: TATTTATAATAGTGTACACAATTATAAACTGAATAT [CACACA_site6041]
11.7

Any idea what its gcPBM binding intensity (ln) is? The sequence is TATATATATATGTGTACACAATTTATCTGTATTTAT [CACACA_site5945]
11.8

Fill blank: measured gcPBM binding intensity (ln) of the sequence TTATTATAAAAATGTAGTACAATACTTTTTTTTTTT [XGTACX_site732] is ____.
11.7

If you can, please state the reported gcPBM binding intensity (ln) value of TATTACCCATATTATACACACATATATTATATATAT [CACACA_site1567] .
10.3

Look at this sequence and give its reported gcPBM binding intensity (ln). CTTAAAATGATAATATGTACACATAAATAATATATA [XGTACX_site8330]
11.5
